procedure_summary: In vivo pharmacokinetic analyses in rat
measurement_conditions: serum, PO dosing 5 mg/kg, read-out: Serum Cmax of parent compound
property: Cmax (µg/mL)
Reply numerically in µg/mL, unit not repeated.

Item `O=C(Cc1c(Cl)c[n+]([O-])cc1Cl)c1ccc(OC(F)F)c2c1OC1(CCOCC1)O2` has what recorded Cmax?
0.133
